B1: Caulobacter ParB omega fusion; a variant is named by its letters at X, in order, B8GW30 (parent)
chain: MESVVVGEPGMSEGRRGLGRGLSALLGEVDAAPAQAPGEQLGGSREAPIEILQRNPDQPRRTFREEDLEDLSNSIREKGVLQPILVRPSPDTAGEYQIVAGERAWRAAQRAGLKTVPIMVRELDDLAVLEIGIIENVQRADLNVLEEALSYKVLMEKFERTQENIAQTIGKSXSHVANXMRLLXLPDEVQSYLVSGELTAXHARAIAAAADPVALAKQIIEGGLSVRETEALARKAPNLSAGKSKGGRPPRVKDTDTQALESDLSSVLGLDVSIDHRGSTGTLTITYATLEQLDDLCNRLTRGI

# Variants of: B1
# Test Description: one-hybrid fitness for binding parS DNA (scaled: cognate 1, non-cognate 0); higher = stronger binding
# Stated Conditions: with parS DNA site
Over roughly 81,000 sequences, “one-hybrid fitness for binding parS DNA” has its median near -0.17; the highest 2% begin near 0.51. The full list was thinned out, with the highest values kept by preference.
Property: one-hybrid fitness for binding parS DNA

Look over these answered cases.
# Mutations, one-hybrid fitness for binding parS DNA
measured = [
    ("EMVC", "≤ 0.2"),
    ("YSML", "≤ 0.2"),
    ("LLYM", "≤ 0.2"),
    ("RQEM", 0.255),
    ("RHLQ", "≤ 0.2"),
    ("WKAR", "≤ 0.2"),
]

Consider the variant `EQQR` and give its recorded one-hybrid fitness for binding parS DNA.
≤ 0.2

Consider the variant `PRGY` and give its recorded one-hybrid fitness for binding parS DNA.
≤ 0.2

Consider the variant `RGKN` and give its recorded one-hybrid fitness for binding parS DNA.
0.369
